Cited source for all entries: patent US11040036B2

Answer each item with its documented AC50.
Target: PKR R510Q (Homo sapiens, UniProt P30613, R510Q)
Sequence (P30613 whole entry R510Q): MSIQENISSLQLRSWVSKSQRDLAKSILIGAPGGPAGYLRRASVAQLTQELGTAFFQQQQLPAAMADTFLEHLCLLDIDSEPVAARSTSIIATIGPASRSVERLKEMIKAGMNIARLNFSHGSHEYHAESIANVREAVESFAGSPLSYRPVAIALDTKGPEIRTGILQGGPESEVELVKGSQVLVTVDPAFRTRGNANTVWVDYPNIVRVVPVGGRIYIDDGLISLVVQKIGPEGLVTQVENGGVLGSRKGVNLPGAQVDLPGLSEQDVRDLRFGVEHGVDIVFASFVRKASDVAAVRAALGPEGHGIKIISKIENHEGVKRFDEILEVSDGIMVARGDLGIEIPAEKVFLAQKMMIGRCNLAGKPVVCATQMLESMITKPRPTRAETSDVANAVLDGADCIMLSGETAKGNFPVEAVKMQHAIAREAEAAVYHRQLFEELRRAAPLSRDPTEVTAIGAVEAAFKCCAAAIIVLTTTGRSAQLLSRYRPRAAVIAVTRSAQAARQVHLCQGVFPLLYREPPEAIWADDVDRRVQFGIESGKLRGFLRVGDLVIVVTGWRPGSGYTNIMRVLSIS
Assay: PKR mutant assay (AC50), PKR R510Q
Assay type: biochemical
Settings: PKR R510Q mutant enzyme; read-out: PK R510Q AC50

{"columns": ["smiles_notation", "assayed_system", "result"],
 "data": [
  ["Cn1c2nc(Cc3ncsc3F)sc2c2cnn(Cc3c[nH]nn3)c(=O)c21", "PKR R510Q (Homo sapiens, UniProt P30613, R510Q)", "< 300 nM"],
  ["Cn1c2nc(Cc3cc[nH]n3)sc2c2cnn(Cc3cccc(NO)n3)c(=O)c21", "PKR R510Q (Homo sapiens, UniProt P30613, R510Q)", "< 300 nM"],
  ["Cn1c2nc(Cc3cc[nH]n3)sc2c2cnn(Cc3cc(C(N)=O)[nH]n3)c(=O)c21", "PKR R510Q (Homo sapiens, UniProt P30613, R510Q)", "> 800 nM"]
]}

Return reported AC50 values for all items listed beneath this line.
1. Cn1ccc(Cn2ncc3c4sc(Cc5cc[nH]n5)nc4n(C)c3c2=O)n1
2. Cn1c2nc(Cc3ccccn3)sc2c2cnn(Cc3cc[nH]n3)c(=O)c21
3. Cn1c2nc(Cc3cc[nH]n3)sc2c2cnn(Cc3csc(CO)n3)c(=O)c21

Response:
< 300 nM
< 300 nM
< 300 nM

Return reported AC50 values for all items listed beneath this line.
1. Cn1c2nc(Cc3ccccn3)sc2c2cnn(Cc3n[nH]cc3Cl)c(=O)c21
2. Cn1c2nc(Cc3cc[nH]n3)sc2c2cnn(Cc3c[nH]cn3)c(=O)c21
3. Cn1c2nc(Cc3cc[nH]n3)sc2c2cnn(Cc3coc(C(N)=O)n3)c(=O)c21

Response:
["< 300 nM", "< 300 nM", "> 800 nM"]

Request: // returns reported AC50 for input Cn1c2nc(Cn3cncn3)sc2c2cnn(Cc3ccnc(N)n3)c(=O)c21
Response: > 800 nM
